measurement description: Viability Counterscreen for Confirmatory qHTS for Inhibitors of ATXN expression; also: nearly all actives have a fitted effect of over 50% in size
test settings: HEK-293 ATXN2-luc cells viability, CellTiter-Fluor, 24 h
Screen size: about 2,100 compounds; about 260 (12%) were called active. Another 58% or so got no clear call; they are omitted. Calls follow the shape of the dose curve; as a rule, active = well fitted cell-killing curve with a large enough effect; inconclusive = small, poorly fitted or top-dose-only effect, or effect the other way; inactive = flat fitted curve, though single readings scatter. This is one part of the list.
Return exactly one item of active, inactive

# count of solved cases: 5
Just curious, what result did COc1cc2c(C(=O)N3CCOCC3)c(CSc3ccccc3)n(C)c2cc1Br get here?
inactive

Request: CN(C)c1ccc2c(c1)OC(N)=C(C#N)C2c1cccc(F)c1 (centres undefined)
inactive

Request: CCOC(=O)c1c(C)sc2c1N(C(=O)CN(CC)CC)c1cc(Cl)ccc1S2
active

Request: Cc1cc(C)nc(/N=C(\N)Nc2ccc(C(C)C)cc2)n1
inactive

Request: O=C(c1ccco1)N1CCN(c2ncnc3scc(-c4cccs4)c23)CC1
inactive

New cases:
Just curious, what result did N#CCc1nc2ccccc2c(=O)[nH]1 get here?
inactive

Request: COc1ccc(C(=O)/C=C/c2ccc(OC3CSC3)cc2)cc1OC
inactive

Request: Cc1ccc(N/C(N)=N/c2nc(C)cc(N3CCCCC3)n2)c(C)c1
active

Request: O=C(/C=C/c1ccccc1)c1cc(Br)ccc(=O)c1O
active

---

measurement description: Viability Counterscreen for Confirmatory qHTS for Inhibitors of ATXN expression; also: nearly all actives have a fitted effect of over 50% in size
test settings: HEK-293 ATXN2-luc cells viability, CellTiter-Fluor, 24 h
Source text: PI: Daniel Scoles Ph.D. University of Utah School of Medicine, Salt Lake City, Utah MLPCN Grant: NS073009 Spinocerebellar ataxia type 2 (SCA2) is a multisystem neurodegenerative disease caused by a dominantly acting mutation leading to expansion of a polyQ domain in the ataxin-2 protein (ATXN2). SCA2 patients develop progressive ataxia and later lose function in other neuronal systems. […] Here we describe a 5-7 dose quantitative high thoroughput screen (qHTS) for compounds lowering ATXN2 expression. […]
About 260 (12%) of roughly 2,100 compounds were called active. Inconclusive results (about 58%) are left out. Calls follow the shape of the dose curve; as a rule, active = well fitted cell-killing curve with a large enough effect; inconclusive = small, poorly fitted or top-dose-only effect, or effect the other way; inactive = flat fitted curve, though single readings scatter. The list shows a part of the results.
Return exactly one item of t = active, f = inactive

Just curious, what result did Cc1c(C(=O)N2c3ccccc3Sc3ccccc32)cccc1[N+](=O)[O-] get here?
f

Request: COc1cc(Br)cc(/C=N/NC(=O)Cc2ccccc2)c1O
f

Request: Cn1c(=O)c2c(nc(SCCN3CCOCC3)n2Cc2cccc3ccccc23)n(C)c1=O
f

Request: O=C(N/N=C/c1ccccc1O)c1cccc(C(F)(F)F)c1
f

Request: COc1cccc(/C=N/NC(=O)c2cc3c(OC)cccc3[nH]2)c1O
f

New cases:
Just curious, what result did CCCCCC(=O)N/N=C(\C)c1ccccn1 get here?
f

Request: CCCC(=O)NC(c1ccc(C(C)C)cc1)c1ccc2cccnc2c1O (configuration not stated)
f

Request: CC1(C(=O)NCc2ccco2)CCN1C(=O)C1(c2ccccc2)CC1 (configuration not stated)
f

Request: COc1cccc(C(NC(C)=O)c2ccc3cccnc3c2O)c1 (configuration not stated)
t

---

measurement description: Viability Counterscreen for Confirmatory qHTS for Inhibitors of ATXN expression; also: nearly all actives have a fitted effect of over 50% in size
test settings: HEK-293 ATXN2-luc cells viability, CellTiter-Fluor, 24 h
Screen size: about 2,100 compounds; about 260 (12%) were called active. Inconclusive results (about 58%) are left out. The list shows a part of the results.
measured metric: outcome

Please look up its outcome: Nc1c(C(=O)NCc2ccc3c(c2)OCO3)c2nc3ccccc3nc2n1CCCN1CCOCC1
inactive

Request: CC(C)(C)c1ccc(CC(=O)N2CCC2(C)C(=O)Nc2cnc3ccccc3c2)cc1 (stereo not drawn)
inactive

Request: O=C(N/N=C/c1cc(Br)cc(Br)c1O)c1cccc(N2CCCC2=O)c1
inactive
